Overview of reported Ka across a group of binders:
Target: T1, GraA (antitoxin; His-GraA2) (Pseudomonas putida, UniProt Q88MI6 1-99)
T1 sequence: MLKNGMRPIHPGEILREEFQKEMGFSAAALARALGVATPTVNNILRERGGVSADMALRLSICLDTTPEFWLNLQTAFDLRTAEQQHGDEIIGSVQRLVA
Assay: ITC; macroscopic; ITC: 50 mM Tris pH 8.0, 250 mM NaCl, 2 mM β-mercaptoethanol (TCEP in purification for ITC), 25 °C; EMSA: 5 µM DNA, 30 min at room temperature, 6% native PAGE in TBE on ice
Details: protein: recombinant; tags: N-terminal His6; chain copies: 4
Property label: Ka (M^-2)

[
  {
    "Binder": "Variant 2 (dsDNA) DNA 1: AAATTAACGAAGCCCGTTAAGCCGGCAGCT DNA 2: AGCTGCCGGCTTAACGGGCTTCGTTAATTT",
    "Obs value": "4.7e+11"
  },
  {
    "Binder": "Variant 5 (dsDNA) DNA 1: AAATTAACGCCGAACGTTAAGCATTCAGC DNA 2: GCTGAATGCTTAACGTTCGGCGTTAATTT",
    "Obs value": "7.1e+12"
  },
  {
    "Binder": "Variant 3 (dsDNA) DNA 1: AAATTAACGAATAGTGTTAAGCATTCAGCT DNA 2: AGCTGAATGCTTAACACTATTCGTTAATTT",
    "Obs value": "3.9e+11"
  }
]
